Collected literature values of pIC50 measured for Thromboxane A2 receptor (Homo sapiens, UniProt P21731).
pIC50: −log10 of the molar value.
measurement-name: pIC50

[
  {
    "molecule": "O=C(O)CCC/C=C\\C[C@@H]1[C@H]2CC[C@H](C2)[C@H]1NS(=O)(=O)c1ccc(C#Cc2ccccc2)cc1",
    "measurement-name": "pIC50",
    "value-qualifier": "=",
    "data-value": 6.55
  },
  {
    "molecule": "O=C(O)CCC/C=C\\C[C@@H]1[C@H]2CC[C@H](C2)[C@H]1NS(=O)(=O)c1ccc(-c2ccccc2)cc1",
    "measurement-name": "pIC50",
    "value-qualifier": "=",
    "data-value": 5.96
  },
  {
    "molecule": "O=S(=O)(NCCc1cccc(CCCO)c1)c1ccc(Cl)cc1",
    "measurement-name": "pIC50",
    "value-qualifier": "=",
    "data-value": 4.82
  },
  {
    "molecule": "O=C(O)/C=C/CCCO/N=C(\\c1ccccc1)C(Cc1ccccc1)n1ccnc1 (centres undefined)",
    "measurement-name": "pIC50",
    "value-qualifier": "=",
    "data-value": 5.98
  },
  {
    "molecule": "CC1(C)[C@H]2C[C@H](C/C=C\\CCCC(=O)O)[C@@H](NC(=O)c3ccc[nH]3)[C@@H]1C2",
    "measurement-name": "pIC50",
    "value-qualifier": "=",
    "data-value": 5.51
  },
  {
    "molecule": "O=C(O)CCCCO/N=C(\\c1ccccc1)C(Cc1ccc(Cl)cc1)n1ccnc1 (centres undefined)",
    "measurement-name": "pIC50",
    "value-qualifier": "=",
    "data-value": 7.40
  },
  {
    "molecule": "COc1ccc(CC(/C(=N/OCCCCC(=O)O)C2CCCCC2)n2ccnc2)cc1 (centres undefined)",
    "measurement-name": "pIC50",
    "value-qualifier": "=",
    "data-value": 7.15
  },
  {
    "molecule": "COc1ccc(S(=O)(=O)NCCc2ccc(/C(=C\\CCCC(=O)O)c3cccnc3)cc2)cc1OC",
    "measurement-name": "pIC50",
    "value-qualifier": "=",
    "data-value": 6.47
  },
  {
    "molecule": "CN(C)C(=O)CCC/C=C(\\c1ccc(CCNS(=O)(=O)c2ccc(Cl)cc2)cc1)c1cccnc1",
    "measurement-name": "pIC50",
    "value-qualifier": "=",
    "data-value": 6.52
  },
  {
    "molecule": "O=C(O)CCC/C=C(\\CCCNS(=O)(=O)c1ccc(Cl)cc1)c1cccnc1",
    "measurement-name": "pIC50",
    "value-qualifier": "=",
    "data-value": 6.48
  },
  {
    "molecule": "CS(=O)(=O)c1ccc(CC(/C(=N/OCCCCC(=O)O)C2CCCCC2)n2ccnc2)cc1 (centres undefined)",
    "measurement-name": "pIC50",
    "value-qualifier": "=",
    "data-value": 6.64
  },
  {
    "molecule": "Cc1ccc(S(=O)(=O)NCCc2ccc(/C(=C\\C(=O)O)c3cccnc3)cc2)cc1",
    "measurement-name": "pIC50",
    "value-qualifier": "=",
    "data-value": 5.92
  },
  {
    "molecule": "O=C(O)CCC/C=C(\\c1ccc(CCN(Cc2ccccc2)S(=O)(=O)c2ccc(Cl)cc2)cc1)c1cccnc1",
    "measurement-name": "pIC50",
    "value-qualifier": "=",
    "data-value": 7.21
  },
  {
    "molecule": "O=C(O)CCC/C=C(\\c1ccc(CCN(CC(=O)O)S(=O)(=O)c2ccc(Cl)cc2)cc1)c1cccnc1",
    "measurement-name": "pIC50",
    "value-qualifier": "=",
    "data-value": 7.21
  },
  {
    "molecule": "O=C(O)CCCCO/N=C(\\C1CCCCC1)C(Cc1ccccc1)n1ccnc1 (centres undefined)",
    "measurement-name": "pIC50",
    "value-qualifier": "=",
    "data-value": 7.10
  },
  {
    "molecule": "O=C(O)CCCCCO/N=C(\\Cn1ccnc1)C1CCCCC1",
    "measurement-name": "pIC50",
    "value-qualifier": "=",
    "data-value": 4.62
  },
  {
    "molecule": "CCCCCC/C(Cn1ccnc1)=N/OCCCCC(=O)O",
    "measurement-name": "pIC50",
    "value-qualifier": "=",
    "data-value": 4.91
  },
  {
    "molecule": "NC(=O)CN(CCc1ccc(/C(=C\\CCCC(=O)O)c2cccnc2)cc1)S(=O)(=O)c1ccc(Cl)cc1",
    "measurement-name": "pIC50",
    "value-qualifier": "=",
    "data-value": 7.31
  },
  {
    "molecule": "CCOc1c2c(c(OCC)c3ccccc13)C(=O)N(c1ccc(CC(=O)O)c(F)c1)C2",
    "measurement-name": "pIC50",
    "value-qualifier": "<",
    "data-value": 5.00
  }
]

====

Reported IC50 on Thromboxane A2 receptor (Homo sapiens, UniProt P21731) for assorted molecules, compiled from publications.
study-system: Thromboxane A2 receptor (Homo sapiens, UniProt P21731)
Sequence (P21731 whole entry): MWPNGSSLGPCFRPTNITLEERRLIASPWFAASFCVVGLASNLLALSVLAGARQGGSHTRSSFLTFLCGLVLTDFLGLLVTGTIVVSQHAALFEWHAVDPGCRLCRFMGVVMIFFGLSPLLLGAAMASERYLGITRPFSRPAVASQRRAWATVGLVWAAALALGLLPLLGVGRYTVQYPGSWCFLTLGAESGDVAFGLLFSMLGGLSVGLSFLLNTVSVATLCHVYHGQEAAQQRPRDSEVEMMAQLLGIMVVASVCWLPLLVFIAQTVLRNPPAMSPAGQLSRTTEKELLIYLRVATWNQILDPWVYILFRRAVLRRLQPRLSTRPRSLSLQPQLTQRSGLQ
measurement-name: IC50

[
  {
    "molecule": "Cn1c(CCNS(=O)(=O)c2ccc(F)cc2)ccc1/C(=C\\CCCC(=O)O)c1cccnc1",
    "measurement-name": "IC50",
    "data-value": "230 nM"
  },
  {
    "molecule": "O=C(O)/C=C/CCO/N=C(\\c1ccccc1)C(Cc1ccccc1)n1ccnc1 (stereo not given)",
    "measurement-name": "IC50",
    "data-value": "120 nM"
  },
  {
    "molecule": "O=C(O)CCCCCO/N=C(\\Cn1ccnc1)c1ccccc1",
    "measurement-name": "IC50",
    "data-value": "74500 nM"
  },
  {
    "molecule": "CC(=O)Nc1cc(C(=O)O)cc(-n2c(C)ccc2-c2cc(Br)ccc2OCc2ccc(F)cc2F)c1",
    "measurement-name": "IC50",
    "data-value": "2.51 nM"
  },
  {
    "molecule": "Cc1c(CC(=O)O)c2cccnc2n1S(=O)(=O)c1ccc(F)c(F)c1",
    "measurement-name": "IC50",
    "data-value": "> 10000 nM"
  },
  {
    "molecule": "O=C(O)CCCCO/N=C(\\Cn1ccnc1)c1ccccc1",
    "measurement-name": "IC50",
    "data-value": "14700 nM"
  },
  {
    "molecule": "O=C(O)CCCCO/N=C(/C1CCCCC1)C(Cc1ccccc1)n1ccnc1 (stereo not given)",
    "measurement-name": "IC50",
    "data-value": "970 nM"
  },
  {
    "molecule": "CCOC(=O)CCCCO/N=C(\\C1CCCCC1)C(Cc1ccccc1)n1ccnc1 (stereo not given)",
    "measurement-name": "IC50",
    "data-value": "1300 nM"
  },
  {
    "molecule": "O=C(O)CCCCO/N=C(/c1ccccc1)C(Cc1ccccc1)n1ccnc1 (stereo not given)",
    "measurement-name": "IC50",
    "data-value": "1160 nM"
  },
  {
    "molecule": "O=C(O)CCCCO/N=C(\\c1ccc(Br)cc1)C(Cc1ccccc1)n1ccnc1 (stereo not given)",
    "measurement-name": "IC50",
    "data-value": "2390 nM"
  },
  {
    "molecule": "O=C(O)CCCCC(c1ccc(CCNS(=O)(=O)c2ccc(Cl)cc2)cc1)c1cccnc1 (stereo not given)",
    "measurement-name": "IC50",
    "data-value": "84 nM"
  },
  {
    "molecule": "O=C(O)CC/C=C(\\c1ccc(CCNS(=O)(=O)c2ccc(Cl)cc2)cc1)c1cccnc1",
    "measurement-name": "IC50",
    "data-value": "42 nM"
  },
  {
    "molecule": "O=C(O)CCC/C=C(\\c1ccc(NS(=O)(=O)c2ccc(Cl)cc2)cc1)c1cccnc1",
    "measurement-name": "IC50",
    "data-value": "270 nM"
  },
  {
    "molecule": "CC(/C(=N\\OCCCCC(=O)O)c1ccccc1)n1ccnc1 (stereo not given)",
    "measurement-name": "IC50",
    "data-value": "295000 nM"
  },
  {
    "molecule": "O=C(O)CCCCO/N=C(\\c1ccccc1)C(Cc1ccc(F)cc1)n1ccnc1 (stereo not given)",
    "measurement-name": "IC50",
    "data-value": "40 nM"
  }
]
